B1: SAT2 (parent)
chain: LTEAEGWHFFCFQGEATRKLAGK

Variants of: B1
Assay: protein stability index of a GFP-peptide fusion (GPS, HEK-293T) (PSI 1-6); higher = more stable;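 note: lentivirally expressed fusions sorted by FACS into six bins by GFP to DsRed ratio, PSI derived from sequencing read proportions per bin multiplied by bin number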
Details: c terminus: native
Is protein stability index at least 2? Then Y. If not, N.

Worked cases, answers included:
# mutation label, label class
measured = [
    ("E5W", "Y"),
    ("A4M", "N"),
    ("A4Y", "N"),
]

State whether the measured protein stability index reaches 2, counting equality as reaching it, for L1S
Y

State whether the measured protein stability index reaches 2, counting equality as reaching it, for F10P
Y

State whether the measured protein stability index reaches 2, counting equality as reaching it, for G22H
Y

State whether the measured protein stability index reaches 2, counting equality as reaching it, for E15T
Y

State whether the measured protein stability index reaches 2, counting equality as reaching it, for K19R
Y

State whether the measured protein stability index reaches 2, counting equality as reaching it, for E3K
N

State whether the measured protein stability index reaches 2, counting equality as reaching it, for G6A
N

State whether the measured protein stability index reaches 2, counting equality as reaching it, for Q13L
N

State whether the measured protein stability index reaches 2, counting equality as reaching it, for G6I
Y
